This listing pairs compounds with measured Therapeutic index (CC50/IC50).
System: HIV-1 SG3.1
testDescription: microbe, parasite or virus in culture
measurementSetup: HIV-1; CC50 in TZM-bl cells

[
  {
    "compound": "Cc1ccc(COC(=O)C2=CCC3(C(=O)N4C(C(=O)OC(c5ccccc5)c5ccccc5)C(C)(C)SC43)C2C(=O)c2ccccc2)cc1 (stereo not shown) [Compound 9j]",
    "Therapeutic index (CC50/IC50)": 674.49
  },
  {
    "compound": "CC1(C)SC2N(C(=O)C23CC=C(C(=O)OCc2ccccc2)C3C(=O)c2ccc([N+](=O)[O-])cc2)C1C(=O)OC(c1ccccc1)c1ccccc1 (stereo not shown) [Compound 12d]",
    "Therapeutic index (CC50/IC50)": 297.75
  },
  {
    "compound": "C#CCOC(=O)C1=CCC2(C(=O)N3C(C(=O)OC(c4ccccc4)c4ccccc4)C(C)(C)SC32)C1C(=O)c1ccccc1 (stereo not shown) [Compound 9m]",
    "Therapeutic index (CC50/IC50)": 296.11
  },
  {
    "compound": "Cc1ccc(COC(=O)C2=CCC3(C(=O)N4C(C(=O)OC(c5ccccc5)c5ccccc5)C(C)(C)SC43)C2C(=O)c2ccc(Cl)cc2)cc1 (stereo not shown) [Compound 14e]",
    "Therapeutic index (CC50/IC50)": 474.41
  },
  {
    "compound": "CC1(C)SC2N(C(=O)C23CC=C(C(=O)OCc2ccccc2)C3C(=O)c2cc(F)cc(F)c2)C1C(=O)OC(c1ccccc1)c1ccccc1 (stereo not shown) [Compound 12f]",
    "Therapeutic index (CC50/IC50)": 531.34
  },
  {
    "compound": "CC1(C)SC2N(C(=O)C23CC=C(C(=O)OCc2ccccc2)C3C(=O)c2ccc(Cl)cc2)C1C(=O)OC(c1ccccc1)c1ccccc1 (stereo not shown) [Compound 12b]",
    "Therapeutic index (CC50/IC50)": 888.73
  },
  {
    "compound": "CC1(C)SC2N(C(=O)C23CC=C(C(=O)OCC=Cc2ccccc2)C3C(=O)c2ccc(Cl)cc2)C1C(=O)OC(c1ccccc1)c1ccccc1 (stereo not shown) [Compound 14f]",
    "Therapeutic index (CC50/IC50)": 1305.67
  }
]

---

This listing pairs molecules with measured melting point.
observable: melting point

[
  {
    "molecule": "CC1(C)SC2N(C(=O)C23C(C(=O)OCc2ccccc2)=CCC3C(=O)c2ccco2)C1C(=O)OC(c1ccccc1)c1ccccc1 (stereo not shown) [Compound 13i]",
    "experimentalValue": "112.8 to 114.8 °C"
  },
  {
    "molecule": "CC1(C)SC2N(C(=O)C23C(C(=O)OCc2ccccc2)=CCC3C(=O)c2ccc(C(F)(F)F)cc2)C1C(=O)OC(c1ccccc1)c1ccccc1 (stereo not shown) [Compound 13e]",
    "experimentalValue": "141.1 to 143.1 °C"
  },
  {
    "molecule": "Cc1ccc(COC(=O)C2=CCC3(C(=O)N4C(C(=O)OC(c5ccccc5)c5ccccc5)C(C)(C)SC43)C2C(=O)c2ccccc2)cc1 (stereo not shown)",
    "experimentalValue": "59 to 60.8 °C"
  },
  {
    "molecule": "CC1(C)SC2N(C(=O)C23CC=C(C(=O)OCc2ccccc2)C3C(=O)c2ccc(Br)cc2)C1C(=O)OC(c1ccccc1)c1ccccc1 (stereo not shown) [Compound 12c]",
    "experimentalValue": "156.5 to 158.5 °C"
  }
]
